Target: CA IV (Homo sapiens)
Sequence (P22748 19-312): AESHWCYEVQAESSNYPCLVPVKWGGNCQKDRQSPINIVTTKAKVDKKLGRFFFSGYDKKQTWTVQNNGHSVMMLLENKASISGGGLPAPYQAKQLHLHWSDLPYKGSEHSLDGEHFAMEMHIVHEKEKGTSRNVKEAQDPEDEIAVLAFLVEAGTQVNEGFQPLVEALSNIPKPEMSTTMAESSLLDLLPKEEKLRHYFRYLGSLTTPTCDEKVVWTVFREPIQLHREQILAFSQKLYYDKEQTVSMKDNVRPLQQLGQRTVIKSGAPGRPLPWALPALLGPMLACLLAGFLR
Experiment: Stopped-flow CO2 hydration activity assay (SFA)
Type: biochemical
Parameters: made in house
Details: 25°C, pH 7.5, 25 nM CA IV, Morrison equation; read-out: Affinity (Kd) by SFA, CA IV
measurementKind: pKd
Please report pKd as the negative decimal logarithm of the molar concentration, giving only the number.

**Query** Quick one: pKd of NS(=O)(=O)c1cc2c(cc1Cl)N=CNS2(=O)=O [Compound 3, chlorothiazide] ?
**Result** 6.52

###

Molecular target: CA XIII (Homo sapiens)
Sequence (Q8N1Q1 whole entry): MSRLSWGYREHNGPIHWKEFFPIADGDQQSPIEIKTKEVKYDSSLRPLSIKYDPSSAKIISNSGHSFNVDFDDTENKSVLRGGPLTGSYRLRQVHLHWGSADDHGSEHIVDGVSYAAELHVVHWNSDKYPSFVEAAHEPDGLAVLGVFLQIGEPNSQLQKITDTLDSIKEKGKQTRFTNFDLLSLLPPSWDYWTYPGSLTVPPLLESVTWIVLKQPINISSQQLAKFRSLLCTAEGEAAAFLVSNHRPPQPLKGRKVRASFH
Assay: Fluorescence-based thermal shift assay (FTSA)
I'd appreciate it if you could supply pKd values for the items below.
Please report pKd as the negative decimal logarithm of the molar concentration, giving only the number.

**Query** Lab request: please report pKd under test system CA XIII (Homo sapiens) for NS(=O)(=O)c1ccccc1Cl [Compound 1, 2-chloro-benzenesulfonamide]
**Result** 6.24

**Query** Lab request: please report pKd under test system CA XIII (Homo sapiens) for NS(=O)(=O)c1cc2c(cc1C(F)(F)F)NCNS2(=O)=O [Compound 10, hydroflumethiazide]
**Result** 6.33

**Query** Lab request: please report pKd under test system CA XIII (Homo sapiens) for NS(=O)(=O)c1cc2c(cc1Cl)CN(C1CCCCC1)C2=O [Compound 17, Clorexolone]
**Result** 7.29

**Query** Lab request: please report pKd under test system CA XIII (Homo sapiens) for C=CCSCC1Nc2cc(Cl)c(S(N)(=O)=O)cc2S(=O)(=O)N1 (centres unmarked) [Compound 9, althiazide]
**Result** 6.82

**Query** Lab request: please report pKd under test system CA XIII (Homo sapiens) for Cc1cccc(C)c1NC(=O)c1cc(S(N)(=O)=O)c(Cl)cc1O [Compound 14, xipamide]
**Result** 6.17

**Query** Lab request: please report pKd under test system CA XIII (Homo sapiens) for NS(=O)(=O)c1cc2c(cc1Cl)NC(C1CC3C=CC1C3)NS2(=O)=O (centres unmarked) [Compound 6, cyclothiazide]
**Result** 6.37

**Query** Lab request: please report pKd under test system CA XIII (Homo sapiens) for C[C@@H]1CCC[C@H](C)N1NC(=O)c1ccc(Cl)c(S(N)(=O)=O)c1 [Compound 13, clopamide]
**Result** 6.77

**Query** Lab request: please report pKd under test system CA XIII (Homo sapiens) for NS(=O)(=O)c1cc(C(=O)O)c(NCc2ccco2)cc1Cl [Compound 15, Furosemide]
**Result** 6.64
